# test.parameters: human gut metagenome, 24 h, 2 µM; note: call rule not given here
property.measured: Bacterial Biotransformation

# compound, observed
measured = [
    ("CN1C(=O)CCS(=O)(=O)C1c1ccc(Cl)cc1 (centres undefined)", "Compound NOT metabolized"),
    ("CN1CCC(=C2c3ccccc3CCc3cccnc32)CC1.O=C(O)/C=C\\C(=O)O.O=C(O)/C=C\\C(=O)O [AZATADINE MALEATE]", "Compound metabolized"),
    ("NS(=O)(=O)c1cc2c(cc1Cl)N=C(CSCc1ccccc1)NS2(=O)=O [BENZTHIAZIDE]", "Compound NOT metabolized"),
    ("O=C(O)COCCN1CCN(C(c2ccccc2)c2ccc(Cl)cc2)CC1 (centres undefined)", "Compound metabolized"),
    ("CCCCCOC(=O)Nc1nc(=O)n([C@@H]2O[C@H](C)[C@@H](O)[C@H]2O)cc1F", "Compound metabolized"),
    ("CC(C)NCC(O)c1ccc(NS(C)(=O)=O)cc1 (centres undefined)", "Compound NOT metabolized"),
    ("CN(C)CCC=C1c2ccccc2C=Cc2ccccc21", "Compound metabolized"),
    ("Cc1ccc(S(=O)(=O)NC(=O)NN2CCCCCC2)cc1 [TOLAZAMIDE]", "Compound metabolized"),
    ("CCN(CC)C(C)CN1c2ccccc2Sc2ccccc21 (centres undefined)", "Compound metabolized"),
]
